tested on: HT29 colon; test: NCI tumour cell line growth inhibition, 48 h

MOLECULE	GI50
CCN(CC)c1ccc(/C=C/C=C(/C#N)C(N)=S)cc1	2840 nM
CN(C)c1ccc(C(=C2C=CC(=[N+](C)C)C=C2)c2ccccc2Cl)cc1	167 nM
CN(C)c1ccc(/C=N/NC(=O)c2cccc3ccccc23)c(Cl)c1	503 nM
Cc1ncc(-c2ccnc(Nc3ccc(S(C)(=O)=O)cc3)n2)n1C(C)C	1290 nM
Cc1cc2c(cc1C)[n+](Cc1ccc3ccccc3n1)cn2Cc1ccc2ccccc2n1	331 nM
O=C(Nc1cccc(-n2cc(-c3ccncc3)c(-c3ccc(O)c(Cl)c3)n2)c1)c1ccc(Cl)c(Cl)c1	26000 nM
COc1ccc(/C(=N/O)c2cc(OC)c(OC)c(OC)c2)c(OC)c1N	3540 nM
COc1ccc(-c2nc(-c3nc4ccc(C(F)(F)F)cc4[nH]3)c3ccccn23)cc1	58200 nM
CCN1C(=O)N(CC)C2C1NN=c1s/c(=C\c3cccc([N+](=O)[O-])c3)c(=O)n12 (centres undefined)	38.7 nM

###

system: HCT-15 colon; test: NCI tumour cell line growth inhibition, 48 h

COMPOUND	CENSORING QUALIFIER	TGI, µM
C#CC(=O)OCC#CCOC(=O)C#C	=	36.5
Cc1ccc(NC(=O)/C(=N\NC(N)=O)c2c(O)c3ccccc3[nH]c2=O)cc1	>	100
CCN(CC)CCNC(=O)c1nn(-c2ccc(Cl)cc2)c2c1CCc1cc(OC)ccc1-2	=	7.81
CS/C=C\C(=O)O[C@H]1C[C@@H]2[C@@H](O)c3occ(C)c3C[C@]2(C)[C@@H](C)C1	=	95.1
Oc1ccccc1C=Nc1ccccc1N=Cc1ccccc1O.[Cu+2]	=	24.8
CN(C)c1ccc(C(=C2C=CC(=[N+](C)C)C=C2)c2ccccc2Cl)cc1	=	4.96
CCCCN1CCN(c2ccc3nc(-c4ccc5nc(-c6ccc(OCC)c(OCC)c6)[nH]c5c4)[nH]c3c2)CC1	=	3.32
COc1cc(NC(C)CCCN)c2ncccc2c1Sc1ccc(Cl)cc1 (stereo not given)	=	3.67
CC(=O)OC1[C@@H](OC(C)=O)CN(OCc2ccccc2)C[C@H]1OC(C)=O (stereo not given in full)	>	100
C[C@]12CCc3sc(-c4cccc(F)c4)nc3C1=CC[C@@H]1[C@@H]2CC[C@]2(C)C(=O)CC[C@@H]12	=	4.17

###

tested on: NCI-H460 lung
Labels: YES = active, NO = inactive

COMPOUND	GROUP
CCOC(=O)c1nc2cc(C(F)(F)F)ccc2[n+]([O-])c1C	NO
N=C(N)SCc1ccc([N+](=O)[O-])cc1[N+](=O)[O-]	NO
CCN(CC)CCCNc1[nH]ncc2c(C)c3nc4ccccc4c3cc12	YES
Nc1cc2nc3ccccc3oc-2cc1=O	NO
CCN(Cc1cccc(F)c1F)c1ccc(CO)c(Cl)c1	YES
CC(=O)/C(=C\c1c(-c2ccccc2)[nH]c2ccccc12)S(=O)(=O)c1ccccc1	NO
CC(=O)c1cccc(NC(=O)c2ccc(NC3=C(Cl)C(=O)N(Cc4ccccc4)C3=O)cc2)c1	NO
CN(C)c1ccc(C(=C2C=CC(=[N+](C)C)C=C2)c2ccccc2Cl)cc1	YES
CNCCCn1c2c(c3ccc(F)cc3c1=O)C(=O)c1cc(OC)cnc1-2	YES
Cc1cc(O)cc(C)c1/C=C/c1cncc(C(=O)OC(C)(C)C)c1	NO
CC1(C)CC(=O)c2c(ccc(C(=O)C[C@@H](N)CO)c2N)O1	YES
COc1ccc(C#CC2=C(c3cc(OC)c(OC)c(OC)c3)C(=O)OC2)cc1	NO
CC(C)(C)OC(=O)NCCCCCCCCCCn1c2c(c3ccccc3c1=O)C(=O)c1ccccc1-2	NO
FC(F)(F)c1[nH]ncc1-c1nc2ccc3[nH]ncc3c2c2c1CCCC2	NO
O=S(=O)(NCCO)c1cc[c]([Sb](=[O])([OH])[OH])cc1	NO
Cc1cc(S(N)(=O)=O)c(S/C(=N\Nc2ccc([N+](=O)[O-])cc2)c2ccc3ccccc3c2)cc1Cl	NO
COC(=O)[C@@H](OC)[C@@H]1Cc2cc3cc(OC4CC(OC5CC(O)C(O)C(C)O5)C(O)C(C)O4)c(C)c(O)c3c(O)c2C(=O)[C@H]1OC1CC(OC2CC(OC3CC(C)(O)C(O)C(C)O3)C(O)C(C)O2)C(O)C(C)O1 (stereo partly drawn)	YES
Oc1c(CNCCNCc2cc(Cl)cc(Cc3ccccc3)c2O)cc(Cl)cc1Cc1ccccc1	YES

###

Recorded TGI for the following compounds
system: PC-3 prostate; assay: NCI tumour cell line growth inhibition, 48 h

COMPOUND	TGI
CC(C)(O)CCc1ccc(O)c2c(=O)c3c(O)c4c(cc3oc12)O[C@H]1OC=C[C@@]41O	> 35.1 µM
C=CCN1C[C@@H](C)N([C@@H](c2ccc(C(=O)N(CC)CC)cc2)c2cccc(OC)c2)C[C@@H]1C	> 100 µM
C[n+]1c(/C=C/c2ccc(/C=N/NC(=O)c3ccc(C(=O)N/N=C/c4ccc(/C=C/c5cn6ccccc6[n+]5C)cc4)cc3)cc2)cn2ccccc21	> 100 µM
FC(F)(F)c1[nH]ncc1-c1nc2ccc3[nH]ncc3c2c2c1CCCC2	8.73 µM
CCOC(=O)c1cn2c(ccc3sc4ccccc4c(=O)c32)n1	> 100 µM
CCN(CC)CCNC(=O)c1nn(-c2ccc(Cl)cc2)c2c1CCc1cc(OC)ccc1-2	26.3 µM
S=C(c1c[nH]c2ccccc12)N1CCCCC1	> 100 µM
NC(=S)N/N=C1\CCCCC1C(O)(C(F)(F)Cl)C(F)(F)Cl (centres undefined)	> 10 µM
COC(=O)c1ccc(C)cc1CC1Cc2c(C)cccc2C1=O (centres undefined)	> 34.6 µM
CC/C=C\C[C@H](O)C/C=C1/C(=O)C=C[C@@H]1C/C=C\CCCC(=O)NC	4.79 µM
COc1ccc(C#CC2=C(c3cc(OC)c(OC)c(OC)c3)C(=O)OC2)cc1	> 50 µM
CC(C)(C)OC(=O)NCCCCCCCCCCn1c2c(c3ccccc3c1=O)C(=O)c1ccccc1-2	> 100 µM
Oc1ccccc1C=Nc1ccccc1N=Cc1ccccc1O.[Cu+2]	16.2 µM
Cc1cc(=O)c2ccccc2n1CCCCCCCCCCn1c(C)cc(=O)c2ccccc21	> 100 µM
O=S(=O)(O)c1ccccc1N=Nc1ccc(N=Nc2c(O)ccc3ccccc23)c(S(=O)(=O)O)c1	> 100 µM
NCCN1C(=O)c2ccccc2C1(O)c1ccc(Cl)cc1 (centres undefined)	50 µM
CC(OC(=O)N(N(CCCl)S(C)(=O)=O)S(C)(=O)=O)c1ccc([N+](=O)[O-])cc1 (centres undefined)	> 100 µM
NC(CO)C(=O)NCC(=O)O (centres undefined)	> 100 µM
O=C1C2CC=CCC2C(=O)N1n1c(Cc2ccccc2)n[nH]c1=O (centres undefined)	> 100 µM

###

tested on: NCI-H23 lung; experiment: NCI tumour cell line growth inhibition, 48 h; in the data active = GI50 below about 0.43 µM; inactive = the rest
Labels: active, inactive

MOLECULE	TESTED TARGET	GROUP
COc1ccc(C#CC2=C(c3cc(OC)c(OC)c(OC)c3)C(=O)OC2)cc1	NCI-H23 lung	inactive
COc1ccc(-c2nc(-c3nc4ccc(C(F)(F)F)cc4[nH]3)c3ccccn23)cc1	NCI-H23 lung	inactive
CC(=O)c1cccc(NC(=O)c2ccc(NC3=C(Cl)C(=O)N(Cc4ccccc4)C3=O)cc2)c1	NCI-H23 lung	inactive
CCN(Cc1cccc(F)c1F)c1ccc(CO)c(Cl)c1	NCI-H23 lung	inactive
C[C@]12CC[C@@H]3c4ccc(O)cc4CC[C@H]3[C@@H]1CC[C@@H]2NS(=O)(=O)c1ccc2ccccc2c1	NCI-H23 lung	inactive
CC(OC(=O)N(N(CCCl)S(C)(=O)=O)S(C)(=O)=O)c1ccc([N+](=O)[O-])cc1 (stereo not given)	NCI-H23 lung	inactive
COc1ccc2[nH]c(O)c(/C=c3/ccc4c(c3)N=C(c3ccc(F)cc3)N=4)c2c1	NCI-H23 lung	inactive
CC(=O)/C(=C\c1c(-c2ccccc2)[nH]c2ccccc12)S(=O)(=O)c1ccccc1	NCI-H23 lung	inactive
C[C@]12CCc3sc(-c4cccc(F)c4)nc3C1=CC[C@@H]1[C@@H]2CC[C@]2(C)C(=O)CC[C@@H]12	NCI-H23 lung	inactive
CN(C)c1ccc(C(=C2C=CC(=[N+](C)C)C=C2)c2ccccc2Cl)cc1	NCI-H23 lung	active
CNCCCn1c2c(c3ccc(F)cc3c1=O)C(=O)c1cc(OC)cnc1-2	NCI-H23 lung	active
CCc1c(C)c2ccc(OCC(=O)N=Nc3c(O)[nH]c4ccccc34)c(C)c2oc1=O	NCI-H23 lung	inactive
Cc1cc2c(cc1C)[n+](Cc1ccc3ccccc3n1)cn2Cc1ccc2ccccc2n1	NCI-H23 lung	inactive
O=C(COc1ccc(-c2nc3cc(Cl)c(Cl)cc3[nH]2)cc1)N=Nc1c(O)[nH]c2ccccc12	NCI-H23 lung	inactive
CC(=O)c1ccc2c(c1)N(CCCN(C)C)c1ccccc1S2	NCI-H23 lung	inactive
Cn1c2ccccc2c2nnc(NNCc3ccccn3)nc21	NCI-H23 lung	active
CC/C=C\C[C@H](O)C/C=C1/C(=O)C=C[C@@H]1C/C=C\CCCC(=O)NC	NCI-H23 lung	inactive
COc1cc(NC(C)CCCN)c2ncccc2c1Sc1ccc(Cl)cc1 (stereo not given)	NCI-H23 lung	inactive
COc1ccc(/C(=N/O)c2cc(OC)c(OC)c(OC)c2)c(OC)c1N	NCI-H23 lung	inactive
CCN1C(=O)N(CC)C2C1NN=c1s/c(=C\c3cccc([N+](=O)[O-])c3)c(=O)n12 (stereo not given)	NCI-H23 lung	active
